Here we gather IC50 data for Fatty-acid amide hydrolase 1 (Homo sapiens) reported by several publications.

// below: answered compounds
query_smiles=Cc1cn(C(=O)N2CCC3(CCN(Cc4cc(Cl)ccc4C(F)(F)F)C3)CC2)nc1C(=O)O result="100 to 1000 nM"
query_smiles=O=C(O)c1ccn(C(=O)N2CCC3(CCCN3Cc3ccc(C(F)(F)F)cc3N3CCCC3)CC2)n1 result="1000 to 10000 nM"
query_smiles=O=C(O)c1ccn(C(=O)N2CCC3(CCN(Cc4cccc(Oc5ccc(Cl)cc5)c4)C3)CC2)n1 result="1000 to 10000 nM"
query_smiles=COc1ccc(-c2ccc3c(c2)CN(C(=O)OC(C(F)(F)F)C(F)(F)F)C3)cc1F result="> 1000 nM"
query_smiles=Cc1cc(C(=O)C(=O)Nc2cccc(Cl)c2)c(-c2ccccc2)n1Cc1ccc(Cl)cc1 result="> 50000 nM"
query_smiles=COc1cc(NC(=O)C(=O)c2c3c(n(Cc4ccc(Cl)cc4)c2C)CCC(C)(C)C3)ccn1 result="94 nM"
query_smiles=COc1cc(NC(=O)C(=O)c2c(-c3ccccc3)c(C)n(Cc3ccc(Cl)cc3)c2C)ccn1 result="> 5000 nM"

Next, consider the following compound.
IN: Which IC50 is reported with Fatty-acid amide hydrolase 1 (Homo sapiens) for this entry: COc1cc(NC(=O)C(=O)c2cc(C)n(Cc3ccc(F)cc3)c2C)ccn1 ?
OUT: 1220 nM
